Target: FAK (Homo sapiens)
Construct: endogenous in cells; host or cells: U87MG glioblastoma cells (ATCC HTB-14)
Sequence (Q05397 whole entry): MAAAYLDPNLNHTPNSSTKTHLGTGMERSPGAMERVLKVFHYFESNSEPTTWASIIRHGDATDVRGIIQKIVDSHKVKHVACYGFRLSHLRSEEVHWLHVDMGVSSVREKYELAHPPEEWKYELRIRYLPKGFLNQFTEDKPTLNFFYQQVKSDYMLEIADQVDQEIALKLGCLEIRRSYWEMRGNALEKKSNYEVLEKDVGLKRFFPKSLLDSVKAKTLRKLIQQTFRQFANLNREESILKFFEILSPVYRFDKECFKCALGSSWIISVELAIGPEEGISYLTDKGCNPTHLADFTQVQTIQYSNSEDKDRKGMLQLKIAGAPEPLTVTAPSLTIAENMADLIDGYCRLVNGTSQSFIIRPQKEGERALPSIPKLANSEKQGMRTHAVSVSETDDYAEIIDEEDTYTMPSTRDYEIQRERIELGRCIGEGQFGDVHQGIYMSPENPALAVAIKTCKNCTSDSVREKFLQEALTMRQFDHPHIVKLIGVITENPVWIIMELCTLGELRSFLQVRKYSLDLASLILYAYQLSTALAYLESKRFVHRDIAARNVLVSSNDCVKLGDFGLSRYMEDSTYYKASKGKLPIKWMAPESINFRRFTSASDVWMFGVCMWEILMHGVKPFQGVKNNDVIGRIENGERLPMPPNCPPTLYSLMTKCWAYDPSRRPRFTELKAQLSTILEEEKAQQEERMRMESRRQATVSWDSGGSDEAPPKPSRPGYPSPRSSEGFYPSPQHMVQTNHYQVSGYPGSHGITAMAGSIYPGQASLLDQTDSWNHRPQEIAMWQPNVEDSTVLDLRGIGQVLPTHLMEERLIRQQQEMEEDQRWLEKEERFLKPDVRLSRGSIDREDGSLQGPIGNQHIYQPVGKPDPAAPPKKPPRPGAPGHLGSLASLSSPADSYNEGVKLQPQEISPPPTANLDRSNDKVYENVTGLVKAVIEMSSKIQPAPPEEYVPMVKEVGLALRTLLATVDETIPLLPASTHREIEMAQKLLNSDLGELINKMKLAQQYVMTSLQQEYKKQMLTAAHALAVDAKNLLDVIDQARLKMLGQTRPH
Experiment: Cell-based capture ELISA for inhibition of FAK autophosphorylation [pY397] in U87MG cells
Settings: 50% (v/v) mouse plasma, mean IC50, read-out: FAK Activity Mechanistic (U87MG) MP
pIC50: −log10 of the molar value.
The entries below come with measured pIC50 values attached.

Guide cases for pIC50, answers given:
compound	reading
CNC(=O)c1nc2ccc1Nc1nc(ncc1C(F)(F)F)Nc1ccc(cc1OC)CP(=O)(OC(C)C)OCCCn1cc-2cn1 (racemic) [Example 72]	> 6.40
CCOP1(=O)Cc2ccc(c(OC)c2)Nc2ncc(C(F)(F)F)c(n2)Nc2ccc(cc2C(=O)NOC)-c2cnn(c2)CCCO1 (racemic)	5.40 to 6.40
CNC(=O)c1nc2ccc1Nc1nc(ncc1C(F)(F)F)Nc1ccc(cc1OC)CP(=O)(O)OCCCn1cc-2cn1	< 5.40
CCCP1(=O)Cc2ccc(c(OC)c2)Nc2ncc(C(F)(F)F)c(n2)Nc2ccc(nc2C(=O)NC)-c2cnn(c2)CCCO1 (single isomer, unassigned) [Example 37A]	5.40 to 6.40
CCOP1(=O)Cc2ccc(c(OC)c2Cl)Nc2ncc(C(F)(F)F)c(n2)Nc2ccc(nc2C(=O)NC)-c2cnn(c2)CC2(COC2)CO1 (racemic)	5.40 to 6.40

**Query** Item CCOP1(=O)Cc2cc(OC)c(cc2Cl)Nc2ncc(C(F)(F)F)c(n2)Nc2ccc(nc2C(=O)NC)-c2cnn(c2)CCCO1 (racemic) [Example 56] has what recorded pIC50?
**Result** 5.40 to 6.40
